These entries and their values trace back to patent US20230143604A1.

# system.under.test: full-length human GLP-1R with an N-terminal FLAG tag, overexpressed on HEK-293T cells (human, UniProt P43220 24-463)
# test.method.notes: cell-based or functional assay
Starred links: 1 amine or outer side, 2 acyl side, 3 side chain; linkers in the order of their positions; H or OH if unused. Non-standard residues stand in square brackets, D forms with d. Groups on a side chain read outwards from the residue. No end group written: not given here. *: point of attachment. C18 diacid = O=C(O)CCCCCCCCCCCCCCCCC(=O)*; γGlu = O=C(O)[C@H](CCC(=O)[*:2])N[*:1]; NMeY = CN[C@@H](Cc1ccc(O)cc1)C(=O)O; AEEA = NCCOCCOCC(=O)O; Aib = CC(C)(N)C(=O)O
attribute.measured: Human GLP1R cAMP EC50, HEK293T
Please make sure the unit comes right after the number.

## Task I have this binder here, Me-Y[Aib]EGTFISDYSIALDKAAQ[Aib]K([AEEA-AEEA-γGlu-γGlu-C18 diacid])FVEWLLAQRG-OH [Compound No. 174] , and I need its recorded Human GLP1R cAMP EC50, HEK293T.
## Result 47.9 nM

## Task One more binder: YXEGTFISDYSIAMDKIHQQDFVNWLLAQXGKKNDWKHNITQ (N-TER cell blank; Aib at 2; Km at 30 = Lys(2OEGgE-C18DA); C-terminus OH) [Compound No. 189]
## Result 219 nM

## Task One more binder: [NMeY][Aib]EGTFISDYSI[Aib]LDR[Aib]AQ[Aib]K([G5-γGlu-γGlu-C18 diacid])FVNWLLAQRG-OH [Compound No. 210]
## Result 10.7 nM
